Entries annotated with measured other
target.desc: T1, Sumo-ELL2^Occ, wild type (human, UniProt O00472 519-640)
T1 sequence (looked up): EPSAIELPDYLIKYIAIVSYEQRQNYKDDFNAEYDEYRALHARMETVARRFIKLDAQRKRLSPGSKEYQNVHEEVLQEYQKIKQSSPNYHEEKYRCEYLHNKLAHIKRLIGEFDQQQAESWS
assay.method.text: fluorescence polarisation
test.conditions: both partners purified

Guide cases for other, answers given:
binder	other
His-tagged AFF4^ELLBow (301–351) F345D/F347D (peptide, UniProt Q9UHB7 301-351, looked up) PSQPLDASASGDVSCVDEILKEMTHSWPPPLTAIHTPCKTEPSKDPDPTKE	< 2 fold
His-tagged AFF4^ELLBow (301–351) M323D (peptide, UniProt Q9UHB7 301-351, looked up) PSQPLDASASGDVSCVDEILKEDTHSWPPPLTAIHTPCKTEPSKFPFPTKE	> 25 fold

Query: other; subject: His-tagged AFF4^ELLBow (301–351) E322H (peptide, UniProt Q9UHB7 301-351, looked up) PSQPLDASASGDVSCVDEILKHMTHSWPPPLTAIHTPCKTEPSKFPFPTKE
< 2 fold
